Numbers sourced from ChEMBL document CHEMBL3817782.

# Target Desc: Fibroblast growth factor 2 (Homo sapiens)
# Test Protocol: Inhibition of human recombinant FGF2 assessed as reduction in HSPG/FGF2/[…] interaction by measuring FGF2 mediated […]-CHO-flg-1A-luc cell to CHO-K1 cell adhesion incubated for 2 hrs by luciferase assay
pIC50: −log10 of the molar value.
Attribute Measured: pIC50

Compound: C[C@]12CC[C@H]3[C@@H](CC=C4C[C@@H](O)CC[C@@]43C)[C@@H]1CC[C@@H]2[C@@H](O)CC(O)(C(F)(F)F)C(F)(F)F
Target Desc: Fibroblast growth factor 2 (Homo sapiens)
pIC50: 5.00
//
Compound: C[C@]12CC[C@H]3[C@@H](CC=C4C[C@@H](O)CC[C@@]43C)[C@@H]1CC[C@@H]2C(O)CC(O)(C(F)(F)F)C(F)(F)F (some centres not stated)
Target Desc: Fibroblast growth factor 2 (Homo sapiens)
pIC50: 5.00

###

# Test Protocol: Kinetic solubility in DMEM buffer at 10 uM after 4 hrs in presence of EDTA by HPLC-MS/MS analysis
# Format: physicochemical
# Cond: DMEM buffer with EDTA; read-out: Kinetic_solubility
Attribute Measured: solubility kinetic at 4 h, 10 µM (µM)
Reply with just the number (in µM).

Query string: Please look up its solubility kinetic at 4 h, 10 µM: C[C@]12CC[C@H]3[C@@H](CC=C4C[C@@H](O)CC[C@@]43C)[C@@H]1CC[C@@H]2[C@H](O)CC(O)(C(F)(F)F)C(F)(F)F
Result string: 1.73

###

# Test Protocol: Kinetic solubility in DMEM buffer/1% DMSO assessed as recovered drug level at 6 uM after 4 hrs by HPLC-MS/MS analysis
# Assay type: physicochemical
# Cond: DMEM buffer with 1% DMSO; read-out: Drug recovery
Attribute Measured: solubility kinetic at 4 h, 6 µM (µM)
A number alone suffices; assume µM.

Query string: Fill in the blank: the reported solubility kinetic at 4 h, 6 µM of C[C@]12CC[C@H]3[C@@H](CC=C4C[C@@H](O)CC[C@@]43C)[C@@H]1CC[C@@H]2[C@H](O)CC(O)(C(F)(F)F)C(F)(F)F is ____.
Result string: 1.7

###

# Test Protocol: Kinetic solubility in DMEM buffer/1% DMSO assessed as recovered drug level at 3 uM after 4 hrs by HPLC-MS/MS analysis
# Assay type: physicochemical
# Cond: DMEM buffer with 1% DMSO; read-out: Drug recovery
Attribute Measured: solubility kinetic at 4 h, 3 µM (µM)
Quick reminder: number only, in µM, skip the unit.

Query string: # input compound: C[C@]12CC[C@H]3[C@@H](CC=C4C[C@@H](O)CC[C@@]43C)[C@@H]1CC[C@@H]2[C@H](O)CC(O)(C(F)(F)F)C(F)(F)F ; wanted: its solubility kinetic at 4 h, 3 µM
Result string: 1.4

###

# Target Desc: Fibroblast growth factor 2 (Homo sapiens, UniProt P09038)
# Sequence (P09038 143-288 limits assumed): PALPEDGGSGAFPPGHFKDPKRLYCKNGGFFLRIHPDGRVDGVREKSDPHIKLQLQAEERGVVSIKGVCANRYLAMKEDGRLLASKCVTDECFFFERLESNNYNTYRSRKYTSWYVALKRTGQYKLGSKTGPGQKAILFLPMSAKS
# Test Protocol: Binding affinity to human recombinant FGF2 treated for 4 mins measured after 10 mins by surface plasmon resonance spectroscopic analysis
Attribute Measured: Kd (µM)
Report the figure in µM without appending any unit label.

Query string: Look up Kd for this compound: C[C@]12CC[C@H]3[C@@H](CC=C4C[C@@H](O)CC[C@@]43C)[C@@H]1CC[C@@H]2[C@@H](O)CC(O)(C(F)(F)F)C(F)(F)F
Result string: 40

###

# Test Protocol: Plasma concentration in C57BL/6 mouse at 7.5 mg/kg administered as single dose measured after 30 mins
# Assay type: ADME, organism-based
Attribute Measured: concentration at 0.5 h (nM)

[1] C[C@]12CC[C@H]3[C@@H](CC=C4C[C@@H](O)CC[C@@]43C)[C@@H]1CC[C@@H]2[C@H](O)CC(O)(C(F)(F)F)C(F)(F)F
[2] C[C@]12CC[C@H]3[C@@H](CC=C4C[C@@H](O)CC[C@@]43C)[C@@H]1CC[C@@H]2[C@@H](O)CC(O)(C(F)(F)F)C(F)(F)F
Query string: Pick one: 1 or 2 . Which one has the lower reported concentration at 0.5 h? Use the label to indicate which entry you chose.
Result string: 1
(1: 128 nM, 2: 316 nM)
